Taken from ChEMBL document CHEMBL2375214.

Test: Cytotoxicity against human Huh7.5 cells treated after 96 hrs by MTT assay
Type: cell-based, Huh-7
Could you please report measured CC50 at 96 h for the items listed next?
State just the number; it will be interpreted in µM.

Kindly note the recorded CC50 at 96 h for `CO[C@H]1C[C@@H]2c3cc4c(cc3C(=O)N(C)[C@H]2[C@@H]2OC(C)(C)O[C@@H]21)OCO4` , which is 250

Kindly note the recorded CC50 at 96 h for `CC(=O)O[C@H]1C[C@@H]2c3cc4c(cc3C(=O)N[C@H]2[C@@H]2OC(C)(C)O[C@@H]21)OCO4` , which is 270

Kindly note the recorded CC50 at 96 h for `CO[C@H]1C=C2c3cc4c(cc3C(=O)N(C)[C@H]2[C@@H]2OC(C)(C)O[C@@H]21)OCO4` , which is 280

Kindly note the recorded CC50 at 96 h for CC(=O)O[C@@H]1[C@H](OC(C)=O)[C@@H](OC(C)=O)C=C2c3cc4c(cc3C(=O)N[C@H]21)OCO4 [LYCORICIDINE TRIACETATE] , which is 33

Kindly note the recorded CC50 at 96 h for `CCO[C@@H]1[C@H](OCC)[C@@H](OCC)C=C2c3cc4c(cc3C(=O)N(CC)[C@H]21)OCO4` , which is 252

Kindly note the recorded CC50 at 96 h for `CCO[C@H]1C=C2c3cc4c(cc3C(=O)N(CC)[C@H]2[C@@H]2OC(C)(C)O[C@@H]21)OCO4` , which is 180

Kindly note the recorded CC50 at 96 h for `CO[C@@H]1[C@H](OC)[C@@H](OC)C=C2c3cc4c(cc3C(=O)N(C)[C@H]21)OCO4` , which is 180

Kindly note the recorded CC50 at 96 h for `CCO[C@H]1C[C@@H]2c3cc4c(cc3C(=O)N(CC)[C@H]2[C@@H]2OC(C)(C)O[C@@H]21)OCO4` , which is 260

Kindly note the recorded CC50 at 96 h for `C=CCO[C@@H]1[C@H](OCC=C)[C@@H](OCC=C)C=C2c3cc4c(cc3C(=O)N(CC=C)[C@H]21)OCO4` , which is 120

Kindly note the recorded CC50 at 96 h for `O=C1N[C@H]2[C@H](O)[C@H](O)[C@@H](O)C[C@@H]2c2cc3c(cc21)OCO3` , which is 23

Kindly note the recorded CC50 at 96 h for `C=CCO[C@H]1C=C2c3cc4c(cc3C(=O)N(CC=C)[C@H]2[C@@H]2OC(C)(C)O[C@@H]21)OCO4` , which is 250

Kindly note the recorded CC50 at 96 h for `CC1(C)O[C@@H]2[C@H](O1)[C@@H](O[Si](C)(C)C(C)(C)C)C=C1c3cc4c(cc3C(=O)N[C@H]12)OCO4` , which is 160

Kindly note the recorded CC50 at 96 h for `CC1(C)O[C@H]2[C@@H]3NC(=O)c4cc5c(cc4[C@H]3C[C@H](O)[C@H]2O1)OCO5` , which is 280

Kindly note the recorded CC50 at 96 h for `O=C1N[C@@H]2C(=C[C@H](O)[C@@H](O)[C@H]2O)c2cc3c(cc21)OCO3` , which is 7.2

Kindly note the recorded CC50 at 96 h for `CC1(C)O[C@@H]2[C@H](O1)[C@@H](O)C=C1c3cc4c(cc3C(=O)N[C@H]12)OCO4` , which is 170

Kindly note the recorded CC50 at 96 h for `C=CCO[C@@H]1[C@H](OCC=C)[C@@H](OCC=C)C[C@@H]2c3cc4c(cc3C(=O)N(CC=C)[C@@H]12)OCO4` , which is 38

Kindly note the recorded CC50 at 96 h for `CC1(C)O[C@@H]2[C@H](O1)[C@@H](OCc1ccccc1)C=C1c3cc4c(cc3C(=O)N(Cc3ccccc3)[C@H]12)OCO4` , which is 200
